The values you see were collected from patent US8883782B2.

# test.system: Beta Secretase enzyme (BACE) (Homo sapiens, UniProt P56817)
# Sequence (P56817 46-501, species assumed): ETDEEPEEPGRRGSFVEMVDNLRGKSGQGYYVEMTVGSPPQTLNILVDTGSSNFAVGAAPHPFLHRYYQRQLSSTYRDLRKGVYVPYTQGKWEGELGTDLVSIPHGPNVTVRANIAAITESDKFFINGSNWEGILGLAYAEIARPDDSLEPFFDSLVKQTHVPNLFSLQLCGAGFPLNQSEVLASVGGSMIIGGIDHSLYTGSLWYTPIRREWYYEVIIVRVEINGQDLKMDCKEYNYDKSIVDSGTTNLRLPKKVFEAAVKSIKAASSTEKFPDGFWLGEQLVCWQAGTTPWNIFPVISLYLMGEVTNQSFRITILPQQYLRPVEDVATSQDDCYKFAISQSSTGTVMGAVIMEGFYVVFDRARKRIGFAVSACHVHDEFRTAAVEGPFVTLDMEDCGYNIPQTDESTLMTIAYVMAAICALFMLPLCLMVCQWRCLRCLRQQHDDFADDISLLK
# test.summary: In vitro enzymatic BACE FRET (fluorescence resonance energy transfer) assay
# Format: biochemical
# experimental.context: average IC50, enzyme assay; read-out: BACE 1 FRET assay
reported.metric: pIC50
The meaning of pIC50 here: minus log10 of the concentration in molar units.

molecule	test.system	measurement
NC1=NC2(CO1)c1cc(-c3cccnc3F)ccc1Oc1nc(F)c(-c3cccnc3F)cc12 (stereo not shown) [Example 147]	Beta Secretase enzyme (BACE) (Homo sapiens, UniProt P56817)	7.65

Lookup result for CC1(C#Cc2cnc3c(c2)[C@]2(COC(N)=N2)c2cc(O)ccc2O3)COC1 [Example 690] ; measured pIC50: 6.46

Lab book: pIC50 of NC1=N[C@@]2(CO1)c1cc(-c3cccc(Cl)c3)ccc1Oc1cnc(-c3cccc(Cl)c3)cc12 [Example 527] noted as 8.82

Form field pIC50, entry CC1(C)C[C@H](c2cc(F)c3c(c2)[C@]2(COC(N)=N2)c2cc(-c4cnccn4)ccc2O3)CCO1 [Example 450] : 8.62

====

# test.system: UniProt:P56817
# test.summary: In vitro enzymatic BACE FRET (fluorescence resonance energy transfer) assay
# Type: biochemical
# experimental.context: average IC50, enzyme assay; read-out: BACE 1 FRET assay
reported.metric: pIC50
Formally, pIC50 is defined as -log10 of the concentration c, with c in mol/L.

compound	pIC50
COC(C)(C)C#Cc1cnc2c(c1)[C@]1(COC(N)=N1)c1cc(-c3cncnc3)c(F)cc1O2 [Example 643]	8.96
Cc1ncncc1-c1ccc2c(c1)[C@@]1(COC(N)=N1)c1cc(C3=CCOCC3)ncc1O2 [Example 808]	8.52
NC1=N[C@@]2(CO1)c1cc(-c3cncc(C4=CCOCC4)c3)ccc1Oc1cnc(C3=CCOCC3)cc12 [Example 231]	7.47
CC1(C)C[C@@H](c2cc3c(cn2)Oc2ccc(-c4cncc(F)c4)cc2[C@@]32COC(N)=N2)CCO1 [Example 380]	7.52
COc1nc(C2=CCOCC2)cc2c1Oc1ccc(-c3cccnc3)cc1[C@@]21COC(N)=N1 [Example 840]	8.37

For record CN(C)c1cc2c(cn1)Oc1ccc(-c3cccnc3)cc1C21CSC(N)=N1 (stereo not drawn) [Example 889] the listed pIC50 is 7.70

Query NC1=N[C@]2(CO1)c1cc(-c3cccnc3F)c(F)cc1Oc1c(F)cc(N3CCOCC3)cc12 [Example 870] yields pIC50 of 6.80

For reference, reported pIC50 for NC1=N[C@@]2(CO1)c1cc(-c3cncc(F)c3)ccc1Oc1cnc(-c3cncc(F)c3)cc12 [Example 373] stands at 8.66

# pIC50 (compound: C[C@@](C#Cc1cnc2c(c1)[C@]1(COC(N)=N1)c1cc(-c3cccnc3F)ccc1O2)(CO)CCl [Example 1015] ) is 9.00

For reference, reported pIC50 for NC1=N[C@@]2(CO1)c1cc(-c3cncc(F)c3)ccc1Oc1c2cc(N2CCC(F)(F)CC2)nc1F [Example 927] stands at 9.52

// pIC50 value for NC1=NC2(CO1)c1cc(-c3cccnc3F)ccc1Oc1nc(F)c(C3=CCOCC3)cc12 (stereo not drawn) [Example 150] : 8.59

// field: pIC50; key: NC1=N[C@@]2(CO1)c1cc(-c3cccnc3F)ccc1Oc1c(F)cc(C3=C(Cl)COCC3)cc12 [Example 805] ; value = 9.70

In plain terms, NC1=N[C@@]2(CO1)c1cc(-c3cc(C4=CCOCC4)cnc3F)ccc1Oc1cnc(C3=CCOCC3)cc12 [Example 362] has a documented pIC50 of 8.20

So for CN(c1cc(F)c2c(c1)[C@]1(COC(N)=N1)c1cc(-c3cccnc3F)ccc1O2)C1COC1 [Example 854] , the logged pIC50 turned out to be 8.36

Recorded result, Cc1cc(-c2cc(F)c3c(c2)[C@]2(CSC(N)=N2)c2cc(-c4cccnc4F)ccc2O3)ccn1 [Example 1072] , pIC50: 8.48
